Biological target: T1, integrin αvβ3, purified from human placenta (human, UniProt P06756 31-1048; P05106 27-788)
T1 construct: mature; Native heterodimer, immobilized on ELISA plates or on the BIAcore chip; biotinylated in capture lift and capture ELISA screens; also called αvβ3 receptor; vitronectin receptor
T1 sequence (P06756 31-1048, form in doubt, chain 1 of 2): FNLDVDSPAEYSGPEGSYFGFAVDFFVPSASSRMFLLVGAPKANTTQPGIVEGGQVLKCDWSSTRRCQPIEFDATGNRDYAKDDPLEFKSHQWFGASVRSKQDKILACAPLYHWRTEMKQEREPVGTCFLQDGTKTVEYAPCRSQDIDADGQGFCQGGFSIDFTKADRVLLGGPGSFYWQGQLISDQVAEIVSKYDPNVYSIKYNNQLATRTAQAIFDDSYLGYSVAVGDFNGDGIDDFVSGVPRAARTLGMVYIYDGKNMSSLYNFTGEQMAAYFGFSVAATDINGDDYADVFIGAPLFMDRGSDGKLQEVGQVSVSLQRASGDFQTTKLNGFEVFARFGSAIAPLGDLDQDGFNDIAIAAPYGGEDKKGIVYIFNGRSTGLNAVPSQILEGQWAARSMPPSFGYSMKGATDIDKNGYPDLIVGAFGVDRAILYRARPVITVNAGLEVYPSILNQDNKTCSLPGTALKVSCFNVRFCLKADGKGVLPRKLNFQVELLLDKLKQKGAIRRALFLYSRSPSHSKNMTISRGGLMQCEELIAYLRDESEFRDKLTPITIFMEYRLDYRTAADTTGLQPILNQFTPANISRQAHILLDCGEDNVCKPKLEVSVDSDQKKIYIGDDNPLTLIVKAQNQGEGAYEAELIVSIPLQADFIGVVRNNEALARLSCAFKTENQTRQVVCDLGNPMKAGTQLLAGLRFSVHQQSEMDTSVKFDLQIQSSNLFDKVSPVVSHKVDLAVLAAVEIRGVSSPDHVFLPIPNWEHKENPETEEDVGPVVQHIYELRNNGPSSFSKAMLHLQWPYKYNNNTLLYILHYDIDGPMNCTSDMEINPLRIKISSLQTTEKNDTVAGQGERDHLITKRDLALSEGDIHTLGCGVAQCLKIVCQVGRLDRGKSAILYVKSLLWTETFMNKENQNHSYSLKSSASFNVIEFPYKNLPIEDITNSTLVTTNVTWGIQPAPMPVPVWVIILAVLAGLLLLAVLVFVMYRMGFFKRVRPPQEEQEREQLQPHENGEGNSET
T1 sequence (P05106 27-788, form in doubt, chain 2 of 2): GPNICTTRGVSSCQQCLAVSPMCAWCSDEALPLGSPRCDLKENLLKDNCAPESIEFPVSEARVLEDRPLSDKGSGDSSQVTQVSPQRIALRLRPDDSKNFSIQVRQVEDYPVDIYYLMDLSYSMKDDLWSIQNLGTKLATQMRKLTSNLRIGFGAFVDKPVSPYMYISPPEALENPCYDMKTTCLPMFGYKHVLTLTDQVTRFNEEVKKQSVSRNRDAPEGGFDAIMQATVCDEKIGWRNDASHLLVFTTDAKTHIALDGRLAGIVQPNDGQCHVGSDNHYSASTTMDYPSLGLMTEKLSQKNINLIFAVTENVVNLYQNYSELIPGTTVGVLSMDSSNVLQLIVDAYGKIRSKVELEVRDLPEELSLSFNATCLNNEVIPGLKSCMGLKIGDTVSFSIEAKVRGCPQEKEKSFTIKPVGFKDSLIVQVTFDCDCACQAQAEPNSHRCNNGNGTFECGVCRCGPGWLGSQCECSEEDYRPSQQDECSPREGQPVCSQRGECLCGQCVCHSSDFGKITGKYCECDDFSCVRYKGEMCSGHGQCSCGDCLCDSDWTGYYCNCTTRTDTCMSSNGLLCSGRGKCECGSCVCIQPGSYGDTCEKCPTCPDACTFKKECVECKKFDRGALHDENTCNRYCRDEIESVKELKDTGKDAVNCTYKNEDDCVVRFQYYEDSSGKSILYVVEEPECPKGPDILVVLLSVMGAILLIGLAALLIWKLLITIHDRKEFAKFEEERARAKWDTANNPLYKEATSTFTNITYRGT
Experiment: SPR (BIAcore), purified Fab over immobilized αvβ3
Property: pKd
// pKd: -log10(molar conc.)

Example entries begin here.
1. LM609 grafted antibody combinatorial clone 2G4 (Fab, V domains shown, Fab) VH: QVQLVESGGGVVQPGRSLRLSCAASGFTFSSYDMSWVRQAPGKGLEWVAKVSSGGGSTYYLDTVQGRFTISRDNSKNTLYLQMNSLRAEDTAVYYCARHNYGSFASWGQGTTVTVSS VL: EIVLTQSPATLSLSPGERATLSCQASQSISNHLHWYQQRPGQAPRLLIRYRSQSISGIPARFSGSGSGTDFTLTISSLEPEDFAVYYCQQSGSWPLTFGGGTKVEIK
9.40
2. LM609 grafted antibody combinatorial clone C37 (Fab, V domains shown, Fab) VH: QVQLVESGGGVVQPGRSLRLSCAASGFTFSSYDMSWVRQAPGKGLEWVAKVSSGGGSTYYLDTVQGRFTISRDNSKNTLYLQMNSLRAEDTAVYYCARHNYGSFYEWGQGTTVTVSS VL: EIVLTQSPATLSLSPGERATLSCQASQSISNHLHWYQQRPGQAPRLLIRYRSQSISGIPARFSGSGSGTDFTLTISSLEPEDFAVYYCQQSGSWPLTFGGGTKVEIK
9.52

Let us examine a further case.
Exercise: Please look up its pKd: LM609 grafted antibody combinatorial clone V357D (Fab, V domains shown, Fab; V357D is a clone name, not a substitution) VH: QVQLVESGGGVVQPGRSLRLSCAASGFTFSSYDMSWVRQAPGKGLEWVAKVSSGGGSTYYLDTVQGRFTISRDNSKNTLYLQMNSLRAEDTAVYYCARHNYGSFADWGQGTTVTVSS VL: EIVLTQSPATLSLSPGERATLSCQASQSISNFLHWYQQRPGQAPRLLIRYRSQSISGIPARFSGSGSGTDFTLTISSLEPEDFAVYYCQQSGSWPHTFGGGTKVEIK
Key: 9.30
